Test system: NCI-H226 lung
PROTOCOL_NOTES: NCI tumour cell line growth inhibition, 48 h
Each record here notes measured TGI.
Hi! Could you send only the number? It should be in µM, unit omitted.

MOLECULE	MEASURE	UNITS_OF_MEASURE	MEASURED_VALUE
CN(C)CCOc1nc2c3cccnc3cc(-c3cccc(Cl)c3)c2c2ncccc12	TGI	µM	24.6

IN: Find the recorded TGI belonging to N#CC1=C(C#N)/C(=C(\C#N)C(C#N)C#N)N=C1N and report it.
OUT: 97.3

IN: Same read-out for O=C(c1cc(Br)ccc1O)c1cc(Br)ccc1O ?
OUT: 42

IN: Please give the result for CCCCCCNC(=O)Oc1ccc(/C(=C(\C)c2ccccc2)c2ccc(OCCN3CCCCC3)cc2)cc1 too.
OUT: 21.4

IN: Same for CCCCSCc1nc2nc(Cl)c(Cl)nc2[nH]1
OUT: 62.7

IN: Same for CCOC(=O)c1c(C)n(CC(C)C)c2c1cc1oc(=O)c(=O)n3cnc2c13
OUT: 29.2

IN: For NC(N)=N/N=C/c1cccc(Cl)c1Cl then?
OUT: 29.2

IN: Next molecule: COc1cc2nc(-c3ccc(-n4cncc4-c4ccc(N)cc4)cc3)sc2c(OC)c1OC
OUT: 40.6

IN: Let us now turn to COc1ccccc1CNC(=O)C1c2ccccc2C(=O)N(CC(C)C)C1c1cccs1 (stereo unspecified)
OUT: 72.4

IN: Please give the result for CCCCN(CCCC)CC(C)(C)C(O)c1ccc(OC)c2ccccc12 (stereo unspecified) too.
OUT: 9.24

IN: What do you have for Cc1ccc(S(=O)(=O)NC(CCC(=O)Nc2ccccc2)C(=O)Nc2ccccc2)cc1 (stereo unspecified) ?
OUT: 2.59
